- SYSTEM: hMCHR (MCH receptor) (Homo sapiens, UniProt Q99705)
- Construct: (or internally produced); host or cells: CHO (Chinese hamster ovary) cells, membrane preparation
- Sequence (Q99705 whole entry): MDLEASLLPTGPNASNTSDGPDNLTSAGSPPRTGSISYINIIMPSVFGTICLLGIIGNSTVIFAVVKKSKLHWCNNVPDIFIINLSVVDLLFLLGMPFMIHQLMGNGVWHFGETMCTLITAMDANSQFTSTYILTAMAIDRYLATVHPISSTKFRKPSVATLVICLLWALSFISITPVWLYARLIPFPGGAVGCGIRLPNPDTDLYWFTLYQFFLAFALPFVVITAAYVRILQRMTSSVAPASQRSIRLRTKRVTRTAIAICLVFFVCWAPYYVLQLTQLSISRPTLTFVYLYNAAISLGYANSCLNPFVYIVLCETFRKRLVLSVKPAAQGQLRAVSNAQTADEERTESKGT
- PROTOCOL_TEXT: MCH Assay PCOP Protocol ([125I]-MCH SPA binding to hMCHR-CHO membranes);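 also: A 0.4–50 nM B 51–500 nM C 501–2500 nM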
- APPLIED_CONDITIONS: [125I]-MCH binding to hMCHR-CHO membranes; class symbols for ranges of Ki; read-out: Activity (Ki range)
MEASURED_ENDPOINT: Ki

Query :: Find Ki (hMCHR (MCH receptor) (Homo sapiens, UniProt Q99705)) for the entry CCOC(=O)N1CCC(NCCC(CNC(=O)Nc2cc(Cl)cc(Cl)c2)c2ccc(Cl)c(Cl)c2)CC1 (stereo not shown)
Result :: 51 to 500 nM

Query :: Report Ki for CCNC(=O)NC1CCN(CCC(CNC(=O)Nc2cc(Cl)cc(Cl)c2)c2ccc(Cl)cc2)C1 (stereo not shown) tested on hMCHR (MCH receptor) (Homo sapiens, UniProt Q99705).
Result :: 501 to 2500 nM

Query :: # returns recorded Ki (system: hMCHR (MCH receptor) (Homo sapiens, UniProt Q99705)) for CC1CCN(CCC(C(=O)NCc2cc(C(F)(F)F)cc(C(F)(F)F)c2)c2ccc(Cl)c(Cl)c2)CC1 (stereo not shown)
Result :: 501 to 2500 nM

Query :: # get_value(readout= Ki, system= hMCHR (MCH receptor) (Homo sapiens, UniProt Q99705)) for O=C(NCc1cc(C(F)(F)F)cc(C(F)(F)F)c1)C(CCNCCc1c[nH]c2ccccc12)c1ccc(Cl)c(Cl)c1 (stereo not shown)
Result :: 501 to 2500 nM
